System: Salmonella enterica serovar Typhimurium SL1344
Experiment: intracellular MIC (10-fold luminescence reduction); higher = less potent
Settings: RAW264.7 macrophages
Where a name gives a salt, the structure may show the parent alone.
Catalogue of intracellular MIC readings, one per entry.

Entry under test: CCOC(=O)C1=C(COCCN)NC(C)=C(C(=O)OC)C1c1ccccc1Cl (stereo unspecified) [AMLODIPINE BESYLATE] . Its intracellular MIC was > 50 µM

For reference, reported intracellular MIC for O.O.O=C([O-])CN(CCN(CC(=O)[O-])CC(=O)O)CC(=O)O.[Na+].[Na+] [EDETATE DISODIUM] stands at > 50 µM

Per the record, O=C(O)CN(CCN(CC(=O)O)CC(=O)O)CC(=O)O.[Na+].[Na+].[Na+] [TRISODIUM ETHYLENEDIAMINE TETRACETATE] has intracellular MIC of ≤ 0.78 µM

***
// field: intracellular MIC; key: CO/N=C(\C(=O)N[C@@H]1C(=O)N2C(C(=O)O)=C(CSc3nnnn3C)CS[C@H]12)c1csc(N)n1 [CEFMENOXIME HYDROCHLORIDE] ; value = 1.56 µM

The compound listed as C[C@H]1COc2c(N3CCN(C)CC3)c(F)cc3c(=O)c(C(=O)O)cn1c23 [LEVOFLOXACIN] has a reported intracellular MIC of ≤ 0.78 µM

Lab note: measured intracellular MIC of O=S(=O)(O)NC1CCCCC1 [CYCLAMIC ACID] was > 50 µM

###

System: Salmonella enterica serovar Typhimurium SL1344
Conditions: MHB
Structures can show the parent of a compound that is named as a salt.
recorded-endpoint: MIC

Below are worked cases with known answers.
Looking up CN(C)CC(c1ccc(O)cc1)C1(O)CCCCC1 (centres undefined) [DESVENLAFAXINE SUCCINATE] , I see its MIC listed as > 50 µM

Input COc1ccc(C(=O)c2ccccc2)c(O)c1 . Output MIC: > 50 µM

For this compound ( CN1CCN(c2cc3c(cc2F)c(=O)c(C(=O)O)cn3-c2ccc(F)cc2)CC1 [DIFLOXACIN HYDROCHLORIDE] ), measured MIC is ≤ 0.78 µM

***
Input Nc1nc(/C(=C/CC(=O)O)C(=O)N[C@@H]2C(=O)N3C(C(=O)O)=CCS[C@H]23)cs1 . Output MIC: ≤ 0.78 µM

In plain terms, C[C@@H]1CN(c2c(F)c(F)c3c(=O)c(C(=O)O)cn(C4CC4)c3c2F)C[C@H](C)N1 has a documented MIC of 3.13 µM

Lab book: MIC of CS(=O)(=O)c1ccc([C@@H](O)[C@@H](CF)NC(=O)C(Cl)Cl)cc1 noted as 12.5 µM

Entry C[n+]1cc2c3c(ccc2c2ccc4cc5c(cc4c21)OCO5)OCO3 [SANGUINARINE SULFATE] — recorded MIC = > 50 µM

###

System: Salmonella enterica serovar Typhimurium SL1344
Conditions: MHB
Parameter MIC: see the listing below.

Here is how some compounds turned out for MIC.
// MIC lookup, compound = Cc1cc(CC(C)CC(C)(C)C)n(O)c(=O)c1 (configuration not stated) [PIROCTONE OLAMINE] , result: ≤ 0.78 µM

Sample CCn1nc(C(=O)O)c(=O)c2cc3c(cc21)OCO3 [CINOXACIN] ; MIC observed: > 50 µM

The compound listed as CC[C@H]1OC(=O)[C@H](C)C(=O)[C@H](C)[C@@H](O[C@@H]2O[C@H](C)C[C@H](N(C)C)[C@H]2O)[C@](C)(OC)C[C@@H](C)C(=O)[C@H](C)[C@H]2N(CCCCn3cnc(-c4cccnc4)c3)C(=O)O[C@]12C [TELITHROMYCIN] has a reported MIC of 12.5 µM

Others:
Documented MIC of Cc1ccc(Cl)c(Nc2ccccc2C(=O)O)c1Cl [MECLOFENAMATE SODIUM] : > 50 µM

Looking up C[C@H]1O[C@@H](n2cc(F)c(=O)[nH]c2=O)[C@H](O)[C@@H]1O [DOXIFLURIDINE] , I see its MIC listed as > 50 µM

MIC measured on O=[N+]([O-])c1ccc(O)c2ncccc12 [NITROXOLINE] = 25 µM

Looking up CO[C@]12C[C@@H](COC(=O)c3cncc(Br)c3)CN(C)[C@@H]1Cc1cn(C)c3cccc2c13 [NICERGOLINE] , I found its MIC recorded as > 50 µM
